- system: Glutathione S-transferase omega-1 (Homo sapiens) (UniProt P78417)
- Sequence (P78417 whole entry, looked up): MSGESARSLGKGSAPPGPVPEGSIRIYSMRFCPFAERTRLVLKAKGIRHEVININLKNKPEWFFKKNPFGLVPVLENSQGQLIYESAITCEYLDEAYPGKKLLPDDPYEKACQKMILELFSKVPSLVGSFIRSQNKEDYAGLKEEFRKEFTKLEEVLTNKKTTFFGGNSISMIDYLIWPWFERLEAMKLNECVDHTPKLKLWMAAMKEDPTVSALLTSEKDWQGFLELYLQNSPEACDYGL
- protocol.details: GSTO1 inhibitor hit confirmation, counter-screen for RBBP9 inhibitor project, biochemical, fluorescence polarization, triplicate (AID 2176);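 note: loss of polarization as inhibitors block binding of rhodamine sulfonate ester activity probe; 0% = GSTO1 with DMSO and 100% = wells lacking GSTO1 enzyme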
- assay.setup: recombinant GSTO1, probe fluorescence polarization; at 5.96 µM; active compounds read high
The other results are listed elsewhere or left out.
Quick reference for inhibition among some compounds
endpoint: inhibition (%)

• COc1ccccc1C1C(C#N)=C(N)Oc2c1c(-c1ccccc1)nn2-c1ccccc1 (configuration not stated) = 12.6
• COc1ccc(S(=O)(=O)/N=C2\C=C(NS(=O)(=O)c3ccccc3)C(=O)c3ccccc32)cc1 = 72.9
• O=[N+]([O-])c1ccc(C=Nc2ccc(Cl)cc2Cl)s1 = 11.6
• O=C(CCl)Nc1cccc(CP(=O)(c2ccccc2)c2ccccc2)c1 = 90.4
• Oc1c(C=Nc2cccc3nsnc23)ccc2ccccc12 = 69.9
• O=C(Cc1cc(=O)[nH][nH]1)N/N=C/c1ccccc1[N+](=O)[O-] = 5.98
• Nc1ccc2nc3c(=O)[nH]c(=S)[nH]c3nc2c1 = 62
• c1coc(-c2nc3nc4ccccc4n3nc2-c2ccco2)c1 = 16.5
• Cc1cccc(N2CCN(c3ccc(NC(=O)/C=C\C(=O)O)cc3)CC2)c1 = 7.27
• CC/C(=N/Nc1ccccc1)c1cnnc(SC)n1 = 9.56
• O=C(OCC(=O)N1CCCC1=O)c1cc(S(=O)(=O)N2CCOCC2)ccc1Cl = 1.2
• CCN(C(=O)COC(=O)c1cc(NS(=O)(=O)c2ccc(Cl)c([N+](=O)[O-])c2)ccc1O)C1CCCCC1 = 32.6
• Cc1ccc(N(Cc2cc(=O)[nH]c3ccccc23)C(=O)CCl)cc1 = 90
• O=C1Nc2c(Br)cc(Br)cc2C1(O)N1CCOCC1 (configuration not stated) = 25.2
• COc1ccc2c(c1)OC(O)(C(F)(F)C(F)F)CC2=O (configuration not stated) = 5.88
• O=C(O)c1cccc(NC(=S)N/N=C/c2c[nH]c3ccccc23)c1 = 54.5
• Oc1cccc(/C=N/Nc2ccc(Cl)nn2)c1O = 7.85
• Cc1ccc(S(=O)(=O)C(C#N)c2nc3ccccc3nc2N2CCCC2)cc1C (configuration not stated) = 26.5
• Cc1ccc(SCC2=NNC(=O)C2)cc1 = 11.5
• CN(C(=O)COC(=O)c1cc(-c2ccco2)nc2ccccc12)C1CCS(=O)(=O)C1 (configuration not stated) = 38.5
• CC(C)(C)OC(=O)c1c(N)n(CCCN2CCCC2=O)c2nc3ccccc3nc12 = 57.9
• Clc1ccc(C2=CSC3=Nc4cccc5cccc(c45)N23)cc1 = 85.1
